Record form. Attribute: Percent Effect. Fill in for each entry.
- ASSAYED_SYSTEM: Aspartate--tRNA(Asp/Asn) ligase (Mycobacterium tuberculosis (strain ATCC 25618 / H37Rv)); note: in the data most compounds retested in dose-response had high values
- ASSAY_METHOD_TEXT: Assay for Asp RNA synthetase-1 from Mycobacterium tuberculosis
- Format: functional
- Parameters: scale not given: direction of the effect not stated beside the values
- RUN_PARAMETERS: 30 µM
Answers are plain numbers, in %.

Hello, I would appreciate it if you could give Percent Effect for each entry below.
1. O=C(CO)N1C[C@H]2CC[C@@H]1CN(C1Cc3ccccc3C1)C2
2. Cc1cccc(CN2CC[C@@H]3[C@@H]2CCN3C(=O)c2cnoc2C)n1

Response given:
[7.69, -2.46]

Answer for every listed entry: what is its Percent Effect? The entries follow.
1. COCc1ccccc1NC(=O)[C@@H]1CCCN1C(=O)c1ccco1
2. NC(=O)CN1CCC(NC(=O)c2ccn(-c3cccc(F)c3)n2)CC1
3. O=S(=O)(NCC1CCOc2ccccc2C1)N1CCOCC1 (stereo not drawn)
4. CCc1ccc(CN2C[C@@H]3OCCN(c4ccnc(N(C)C)n4)[C@@H]3C2)o1

Response given:
[-0.557, 2.51, 6.99, -6.22]

Could I get Percent Effect for every one of these entries?
1. CCC1c2cccn2CCN1C(=O)c1ccc2nonc2c1 (stereo not drawn)
2. Cn1cnc2c1CCN(CCS(=O)(=O)c1ccccc1)C2
3. CCc1nccn1C1CCCN(C(=O)c2ccc3[nH]cnc3c2)C1 (stereo not drawn)
4. COc1ccccc1C(=O)NC(CC(=O)O)c1cccs1 (stereo not drawn)
5. O=C(COc1coc(CN2CCCCCC2)cc1=O)c1ccccc1

Response given:
1. 4.26
2. -1.69
3. 0.869
4. 5.75
5. -4.01

Give one value of Percent Effect per listed compound.
1. O=C(NCCCN1CCCCC1)c1ccc(-n2ccc3ccccc32)s1
2. CN(C(=O)c1cccc2[nH]ncc12)C1CCN(c2ccccn2)CC1

Response given:
1: 5.58; 2: 4.76

Please look at the items below and tell me Percent Effect for each one, in order.
1. Cc1ccc(CN2CCC3(CC2)CC(c2cccnc2)CO3)s1 (stereo not drawn)
2. Cn1ncc2c(=O)[nH]c(N3CCN(C(=O)c4ccsc4)CC3)nc21
3. Cc1noc(C)c1C(=O)NCC(c1ccc(F)cc1)N(C)C (stereo not drawn)
4. Cc1cc(C)n2cc(CN3CCCC3Cn3nc(C)nc3C)nc2n1 (stereo not drawn)
5. Cc1cc(N2CCN(Cc3ccc(C)o3)CC2)cc(C)n1
6. Cc1noc(C)c1CN(C)C(=O)NC1CCN(c2ncccn2)CC1

Response given:
-2.49
1.3
1.51
-2.84
-1.34
0.9

Give Percent Effect for all compounds that follow.
1. CN1CCCC(Cc2ccnc3ccncc23)CC1 (stereo not drawn)
2. Cc1ccc(NC2CCN(C(=O)CC3CCCO3)CC2)nn1 (stereo not drawn)
3. Cc1cccn2c(=O)cc(OC(=O)c3ccccc3)nc12

Response given:
1. -3.5
2. -2.07
3. -3.21

Hi there! I need Percent Effect for each item below, if you can.
1. CCOCC(O)CN1CCN(C(=O)c2ccc(OC)cc2F)CC1 (stereo not drawn)
2. c1ccc(OCCN2CCCC(c3noc(C4CC4)n3)C2)cc1 (stereo not drawn)
3. Cc1ccc(CC(=O)N2CCOC(c3nc(C(C)(C)C)n[nH]3)C2)cn1 (stereo not drawn)
4. Cn1ccc2ccnc(CC3CN(C(=O)C4CCC(F)(F)CC4)C3)c21
5. NS(=O)(=O)CCNC(=O)c1nnn(-c2ccccc2)c1C1CC1
6. COCC(=O)N1CC[C@H]2C[C@@H](c3nnc(C4CC4)o3)O[C@@H]2C1
7. CC1CN(CC2CCCCC2)CCN1c1ccc2nncn2n1 (stereo not drawn)
8. COc1nn(C)c2c1CCCN(C(=O)c1cc[nH]n1)C2

Response given:
1. -10.1
2. -0.885
3. -0.39
4. 0.551
5. 2.35
6. -1.34
7. -1.32
8. 0.229

For each of the items listed, what is its Percent Effect?
1. CCc1ccccc1CN1CC[C@@H](NC(=O)c2cccnc2)[C@H](O)C1
2. Cc1cnn(CCNCCCOc2ccccc2)c1
3. CCn1cnnc1C1CCN(C(=O)c2cc3c(s2)CCC3)CC1
4. Cc1cc(NC(=O)CN2CCc3nn(C)c(=O)cc3C2)on1
5. O=S(=O)(NCC1CCN(c2cnccn2)CC1)c1c(F)cccc1F
6. CC(C)c1nc2n(n1)CC(NCc1nnc(C(C)C)o1)CC2 (stereo not drawn)
7. Cc1ccc(C(=O)N2CCN(CCCSCC#N)CC2)o1
8. Nc1nccc(NCc2cc3n(n2)CCCN(C2CCCCC2)C3)n1

Response given:
[-4.34, -1.12, -5.31, 11.6, -2.55, 5.81, 3.17, -6]

====

- ASSAYED_SYSTEM: Shiga toxin 2 (Escherichia coli O157:H7) (UniProt P09385+P09386)
- ASSAY_METHOD_TEXT: E. coli 0.157:H7 Shiga Toxin SOP - stx2 screening assay
- Format: functional
- Parameters: scale not given: direction of the effect not stated beside the values
- RUN_PARAMETERS: 30 µM
MEASUREMENT_KIND: Percent Effect (%)
Answers are plain numbers, in %.

Cc1ccc(S(=O)(=O)Nc2ccc(=O)n(C)c2)cc1    -7.78

Please state Percent Effect for every molecule in the list that follows.
1. Cn1ccnc1CN1CCC2(CC(=O)N(c3cncnc3)C2)C1 (stereo unspecified)
2. CC(=O)N1CCCC1c1cccc(Cc2ccc(F)cc2)n1 (stereo unspecified)
3. Cc1ccc(OCCC(=O)N2CCN(c3cnccn3)CC2)cc1C
4. c1ccc(C[C@H]2[C@H](N3CCOCC3)CCN2Cc2cccnc2)cc1

Response given:
[0.165, 5.81, -12.8, -7.76]

Challenge: Quick check: Percent Effect on Shiga toxin 2 (Escherichia coli O157:H7) (UniProt P09385+P09386), item CCC(C)NC(=O)Cc1c(C)nc2c(c1C)c(=O)[nH]n2C (stereo unspecified) ?
Response given: -28.6

====

Please respond with reported Percent Effect for every item in the list.
- ASSAYED_SYSTEM: Proteasome subunit beta (Trypanosoma cruzi)
- ASSAY_METHOD_TEXT: Trypanosoma cruzi proteasome chymotrypsin-like activity (TcProtChymo) assay. Note: in the data most compounds retested in dose-response had high values.
- Type: functional
- Parameters: scale not given: direction of the effect not stated beside the values
- RUN_PARAMETERS: 9.37 µM
# answer = value followed by unit

Please review the following examples before continuing.
Cc1noc(C)c1CN1CCCC2(CCN(C(=O)CC3CC3)C2)C1 (stereo unspecified)    1.97%
Cc1nc(CN2C[C@@H]3OCCN(c4ncc(F)cn4)[C@@H]3C2)cs1    11.3%
CC(C)(C)n1cc(C(=O)NCCCn2ccnc2)c2cccnc21    19.1%

Each compound below has a reported value. Please supply its Percent Effect.
1. Cc1cc(CN2CC[C@H]3OCC[C@@]3(C(=O)NC(C)C)C2)no1
2. COc1ccc(C)cc1CC(=O)N1CCN(CC(C)O)CC1 (stereo unspecified)
3. CC(C)c1nc(N2CCN3CCCC3C2)c2cnn(C)c2n1 (stereo unspecified)
4. CS(=O)(=O)N1CCC(C(=O)N2CCC3(CC2)OCCCO3)CC1

Response given:
10.4%
8.07%
8.82%
12.2%

====

- ASSAYED_SYSTEM: Aspartate--tRNA(Asp/Asn) ligase (Mycobacterium tuberculosis (strain ATCC 25618 / H37Rv)) (UniProt P9WFW3); note: in the data most compounds retested in dose-response had high values
- Sequence (P9WFW3 whole entry): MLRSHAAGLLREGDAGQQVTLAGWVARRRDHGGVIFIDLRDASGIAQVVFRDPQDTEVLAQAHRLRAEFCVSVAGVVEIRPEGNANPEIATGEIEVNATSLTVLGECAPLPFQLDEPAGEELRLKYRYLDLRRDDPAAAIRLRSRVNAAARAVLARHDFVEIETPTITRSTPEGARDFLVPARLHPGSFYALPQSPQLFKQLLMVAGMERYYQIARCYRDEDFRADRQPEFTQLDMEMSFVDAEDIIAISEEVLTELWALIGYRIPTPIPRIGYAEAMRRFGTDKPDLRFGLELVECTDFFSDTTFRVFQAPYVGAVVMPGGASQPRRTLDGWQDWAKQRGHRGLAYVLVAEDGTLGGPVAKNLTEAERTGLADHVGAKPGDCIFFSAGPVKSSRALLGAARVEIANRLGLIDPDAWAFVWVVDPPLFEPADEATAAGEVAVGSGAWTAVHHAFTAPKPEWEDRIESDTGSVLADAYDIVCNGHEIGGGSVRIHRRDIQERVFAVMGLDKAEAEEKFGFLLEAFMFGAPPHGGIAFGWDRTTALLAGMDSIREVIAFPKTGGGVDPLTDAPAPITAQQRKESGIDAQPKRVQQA
- ASSAY_METHOD_TEXT: Assay for Asp RNA synthetase-1 from Mycobacterium tuberculosis
- Format: functional
- Parameters: scale not given: direction of the effect not stated beside the values
- RUN_PARAMETERS: 30 µM
Would you kindly list Percent Effect for each of these compounds?
Give bare numbers, in %.

Sample records with Percent Effect:
CCN(Cc1ccc2c(c1)OCCO2)C(=O)NC(C)Cn1ccnc1 (stereo unspecified)    5.58
CN(CCO)Cc1nnc(C2CCN(C(=O)c3cccnc3)CC2)n1C    -0.977
O=S(=O)(NCC1CCN(c2ccccn2)CC1)c1ccccc1F    -0.51
CO[C@@H]1CC[C@H]2[C@H]1OCCN2CC1CCOCC1    -1.82
C[S+]([O-])CCCNC(=O)c1cc(Br)c2c(c1)OCCO2 (stereo unspecified)    -1.74

Field: next compound
Challenge: Would you mind telling me what Percent Effect value was observed for Fc1cccnc1CN1CCCCC1c1ccn2ccnc2n1 (stereo unspecified) ?
Response given: 1.4

====

- ASSAYED_SYSTEM: Shiga toxin 2 (Escherichia coli O157:H7) (UniProt P09385+P09386)
- ASSAY_METHOD_TEXT: E. coli 0.157:H7 Shiga Toxin SOP - stx2 screening assay
- Format: functional
- Set-up: scale not given: direction of the effect not stated beside the values
- RUN_PARAMETERS: 30 µM
Give measured Percent Effect for each item. Keep answers brief.
One number for each entry, in %.

# map each compound to its Percent Effect
1. CCC(C)N(C)CCNC(=O)NCc1cccc(-n2cncn2)c1 (stereo unspecified)
2. Cc1noc([C@@H]2CCCN2C(=O)C2CCN(C(=O)C3CCC3)CC2)n1
3. CC(C)N1CCCC(CCCc2ccccn2)(C(=O)O)C1 (stereo unspecified)
4. O=C1OC2(CCNCC2)CN1CC(=O)N1CCCC1c1ccco1 (stereo unspecified)
5. COCC1CCN(C(=O)c2cccc(S(=O)(=O)NCC3(C)COC3)c2)C1 (stereo unspecified)
6. CCC(C)(C)NC(=O)Cn1nc(C)nc1-c1cccc(C)c1

Response given:
-5.27
-35.4
9.97
-9.63
10.4
5.46
